These entries and their values trace back to ChEMBL document CHEMBL1773065.

- assay details: Myorelaxant effect in Wistar rat uterus smooth muscle assessed as inhibition of contractions induced by bolus of oxytocin injected in superfusion system at 100 uM
- Format: functional
- Set-up: scale not given: the % may be the effect or the level left
measurement label: Activity (%)

[
  {
    "compound": "CC1=Nc2ccc(Cl)cc2S(=O)(=O)N1 [DIAZOXIDE]",
    "units label": "%",
    "observed result": 67.7
  },
  {
    "compound": "CC(N/C(=N\\C#N)Nc1ccncc1)C(C)(C)C (racemic) [PINACIDIL ANHYDROUS]",
    "units label": "%",
    "observed result": 38.1
  },
  {
    "compound": "CC(C)OC1=NS(=O)(=O)c2cc(Cl)ccc2N1",
    "units label": "%",
    "observed result": 68.7
  },
  {
    "compound": "CC(C)CC1=NS(=O)(=O)c2cc(Cl)ccc2N1",
    "units label": "%",
    "observed result": 55
  },
  {
    "compound": "CC(C)SC1=NS(=O)(=O)c2cc(Cl)ccc2N1",
    "units label": "%",
    "observed result": 2.3
  },
  {
    "compound": "CC(C)NC1=NS(=O)(=O)c2cc(Cl)ccc2N1",
    "units label": "%",
    "observed result": 75.6
  }
]

* * *

- assay details: Myorelaxant effect in Wistar rat uterus smooth muscle assessed as inhibition of contractions induced by continuous superfusion of oxytocin in presence of 1 uM ATP-sensitive potassium channel blocker glibenclamide
- Format: functional
pEC50: −log10 of the molar value.

[
  {
    "compound": "CC(N/C(=N\\C#N)Nc1ccncc1)C(C)(C)C (racemic) [PINACIDIL ANHYDROUS]",
    "pEC50": 5.09
  },
  {
    "compound": "CC(SC1=NS(=O)(=O)c2cc(Cl)ccc2N1)c1ccccc1 (racemic)",
    "pEC50": 5.17
  }
]

* * *

- assay details: Inhibition of glucose induced insulin secretion from rat Pancreatic islet assessed as percentage of residual insulin release at 50 uM
- Type: functional
# if measured Activity < 30%: 1  # else: -1

[
  {
    "compound": "CC(C)[S+]([O-])C1=NS(=O)(=O)c2cc(Cl)ccc2N1 (stereo not given)",
    "classification": -1
  },
  {
    "compound": "CC(C)SC1=NS(=O)(=O)c2cc(Cl)c(Cl)cc2N1",
    "classification": 1
  },
  {
    "compound": "CC(C)SC1=NS(=O)(=O)c2cc(Br)ccc2N1",
    "classification": -1
  },
  {
    "compound": "CC(C)OC1=NS(=O)(=O)c2cc(F)ccc2N1",
    "classification": -1
  },
  {
    "compound": "CC(C)NC1=NS(=O)(=O)c2ccc(Cl)cc2N1",
    "classification": 1
  },
  {
    "compound": "CC(C)SC1=NS(=O)(=O)c2cc(F)ccc2N1",
    "classification": -1
  },
  {
    "compound": "CC(C)NC1=NS(=O)(=O)c2cc(Br)ccc2N1",
    "classification": 1
  },
  {
    "compound": "COc1ccc2c(c1)S(=O)(=O)NC(NC(C)C)=N2",
    "classification": 1
  },
  {
    "compound": "CC(C)SC1=NS(=O)(=O)c2cc(Cl)ccc2N1",
    "classification": -1
  },
  {
    "compound": "CC(C)OC1=NS(=O)(=O)c2cc(Cl)ccc2N1",
    "classification": 1
  },
  {
    "compound": "Cc1ccc2c(c1)S(=O)(=O)N=C(NC(C)C)N2",
    "classification": 1
  },
  {
    "compound": "CC(C)SC1=NS(=O)(=O)c2ccc(Br)cc2N1",
    "classification": -1
  },
  {
    "compound": "CC(C)SC1=NS(=O)(=O)c2ccc(Cl)cc2N1",
    "classification": -1
  },
  {
    "compound": "CC(C)NC1=NS(=O)(=O)c2cc(F)ccc2N1",
    "classification": 1
  },
  {
    "compound": "CC(C)CC1=NS(=O)(=O)c2cc(Cl)ccc2N1",
    "classification": 1
  }
]

* * *

- assay details: Myorelaxant effect in Wistar rat uterus smooth muscle assessed as inhibition of contractions induced by bolus of oxytocin injected in superfusion system at 10 uM
- Assay type: functional
- Parameters: scale not given: the % may be the effect or the level left
Threshold rule: Activity greater than or equal to 90% is 1; below that, 0.

[
  {
    "molecule": "CC(N/C(=N\\C#N)Nc1ccncc1)C(C)(C)C (racemic) [PINACIDIL ANHYDROUS]",
    "classification": 0
  },
  {
    "molecule": "CC1=Nc2ccc(Cl)cc2S(=O)(=O)N1 [DIAZOXIDE]",
    "classification": 1
  },
  {
    "molecule": "CC(C)CC1=NS(=O)(=O)c2cc(Cl)ccc2N1",
    "classification": 0
  },
  {
    "molecule": "CC(C)NC1=NS(=O)(=O)c2cc(Cl)ccc2N1",
    "classification": 1
  },
  {
    "molecule": "CC(C)SC1=NS(=O)(=O)c2cc(Cl)ccc2N1",
    "classification": 1
  }
]

* * *

- assay details: Inhibition of glucose induced insulin secretion from rat Pancreatic islet assessed as percentage of residual insulin release
- Type: functional

[
  {
    "molecule": "CC1=Nc2ccc(Cl)cc2S(=O)(=O)N1 [DIAZOXIDE]",
    "units label": "µM",
    "IC50": 18.4
  },
  {
    "molecule": "CC(C)NC1=NS(=O)(=O)c2cc(Cl)ccc2N1",
    "units label": "µM",
    "IC50": 0.55
  },
  {
    "molecule": "CC(C)SC1=NS(=O)(=O)c2cc(Cl)ccc2N1",
    "units label": "µM",
    "IC50": 50
  },
  {
    "molecule": "CC(C)CC1=NS(=O)(=O)c2cc(Cl)ccc2N1",
    "units label": "µM",
    "IC50": 5.8
  },
  {
    "molecule": "CC(C)OC1=NS(=O)(=O)c2cc(Cl)ccc2N1",
    "units label": "µM",
    "IC50": 19.1
  },
  {
    "molecule": "CC(N/C(=N\\C#N)Nc1ccncc1)C(C)(C)C (racemic) [PINACIDIL ANHYDROUS]",
    "units label": "µM",
    "IC50": 202
  }
]

* * *

- assay details: Myorelaxant effect in Wistar rat uterus smooth muscle assessed as inhibition of contractions induced by continuous superfusion of oxytocin in presence of 10 uM ATP-sensitive potassium channel blocker glibenclamide
- Type: functional
measurement label: EC50 (µM)

[
  {
    "compound": "CC(N/C(=N\\C#N)Nc1ccncc1)C(C)(C)C (racemic) [PINACIDIL ANHYDROUS]",
    "observed result": 28.3
  },
  {
    "compound": "CC(SC1=NS(=O)(=O)c2cc(Cl)ccc2N1)c1ccccc1 (racemic)",
    "observed result": 24.2
  }
]

* * *

- assay details: Myorelaxant effect in Wistar rat uterus smooth muscle assessed as inhibition of contractions induced by bolus of oxytocin injected in superfusion system at 50 uM
- Type: functional
- Set-up: scale not given: the % may be the effect or the level left

[
  {
    "molecule": "CC(C)NC1=NS(=O)(=O)c2cc(Cl)ccc2N1",
    "Activity [%]": 95
  },
  {
    "molecule": "CC(C)SC1=NS(=O)(=O)c2cc(Cl)ccc2N1",
    "Activity [%]": 54.7
  },
  {
    "molecule": "CC(C)OC1=NS(=O)(=O)c2cc(Cl)ccc2N1",
    "Activity [%]": 85.8
  },
  {
    "molecule": "CC1=Nc2ccc(Cl)cc2S(=O)(=O)N1 [DIAZOXIDE]",
    "Activity [%]": 76.3
  },
  {
    "molecule": "CC(C)CC1=NS(=O)(=O)c2cc(Cl)ccc2N1",
    "Activity [%]": 64.7
  },
  {
    "molecule": "CC(N/C(=N\\C#N)Nc1ccncc1)C(C)(C)C (racemic) [PINACIDIL ANHYDROUS]",
    "Activity [%]": 42.7
  }
]
